Source: ChEMBL document CHEMBL1135072

biological target: Integrin alpha-4/beta-7 (Homo sapiens) (UniProt P13612+P26010); assay: Inhibition of MadCAM-Ig binding to alpha-4 beta-7 integrin at 0.1 uM; type: protein-complex assay
The entries below come with measured inhibition values attached.
Your answer should be a plain number; it is taken to be in %.

{"columns": ["structure.notation", "measure", "result"],
 "data": [
  ["C[C@@]1(C(=O)N[C@@H](Cc2ccc(C(F)(F)F)cc2)C(=O)O)CCCN1S(=O)(=O)c1cc(Cl)cc(Cl)c1", "inhibition", 25]
]}

## Task Which measured inhibition value corresponds to COc1ccc(C[C@H](NC(=O)[C@]2(C)CCCN2S(=O)(=O)c2cc(Cl)cc(Cl)c2)C(=O)O)cc1 ?
## Result 16

## Task Also C[C@@]1(C(=O)N[C@@H](Cc2ccc(C#N)cc2)C(=O)O)CCCN1S(=O)(=O)c1cc(Cl)cc(Cl)c1 , if possible.
## Result 29
